Can you tell me Emax for the items I'm about to list?
# Measured on: Human TREM2 (Homo sapiens)
# Construct: expressed in transfected cells
# Test details: Human TREM2 activity: cellular phosphorylation of Syk (AlphaLISA SureFire Ultra p-SYK) in HEK293/DAP12+TREM2 stable cell line
# Format: cell-based
# Condition: HEK293; maximal response relative to reference agonist example 1B (remaining examples); read-out: Emax

Ask: Find the measured Emax of Cc1cc([C@@H]2CN(c3nc(-c4ccc(F)cc4F)c4nc(C)n(C)c(=O)c4n3)CCO2)ccn1 (single isomer, unassigned) [Example 122A] and report it.
Reply: 75 to 110%

Ask: Please indicate Emax recorded for Cc1nc2c(-c3ccc(Cl)cc3F)nc(N3CCN(CC(F)F)C(c4cnn(C)c4)C3)nc2c(=O)n1C (stereo not drawn)
Reply: < 75%

Ask: Give the reported Emax for this molecule. Cc1nc2c(-c3ccc(Cl)cc3F)nc(N3C[C@@H](c4cnn(C)c4)OC4(CCC4)C3)cc2c(=O)n1C (single isomer, unassigned) [Example 151A]
Reply: 75 to 110%

Ask: Identify measured Emax associated with Cc1cc([C@H]2C[C@@H](c3nc(-c4ccc(Cl)cc4F)c4nc(C)n(C)c(=O)c4n3)CCO2)ccn1 (single isomer, unassigned)
Reply: 75 to 110%

Ask: Give me measured Emax, please, for this molecule: Cc1nc2c(-c3ccc(F)cc3F)nc(N3C[C@@H](c4cnn(C5CC5)c4)O[C@@H](C)C3)nc2c(=O)n1C (single isomer, unassigned) [Example 177A]
Reply: < 75%

Ask: Note down Emax recorded for Cc1cc([C@H]2CN(c3cc4c(=O)n(C)c(C)nc4c(-c4ccc(F)cc4F)n3)CC(F)(F)O2)ccn1 (single isomer, unassigned) [Example 171B]
Reply: < 75%

====

# Measured on: Human TREM2 (Homo sapiens)
# Construct: expressed in transfected cells
# Test details: Human TREM2 activity: cellular phosphorylation of Syk (AlphaLISA SureFire Ultra p-SYK) in HEK293/DAP12+TREM2 stable cell line
# Format: cell-based
# Condition: HEK293; maximal response relative to reference agonist example 1B (remaining examples); read-out: Emax
Readout type: Emax

Ask: Provide only the value of recorded Emax for Cc1cc([C@@H]2CN(c3nc(-c4ccc(F)cc4F)c4nc(C(F)(F)F)n(C)c(=O)c4n3)CCO2)ccn1 (single isomer, unassigned) [Example 154A]
Reply: 75 to 110%

Ask: Report measured Emax; entry is Cc1nc2c(-c3ccc(C(F)(F)F)cc3F)nc(N3CCO[C@H](c4cnn(C)c4)C3)nc2c(=O)n1C (single isomer, unassigned) [Example 25A]
Reply: < 75%

Ask: Let me know recorded Emax for Cc1csc(C2CN(c3nc(-c4ccc(Cl)cc4F)c4nc(C)n(C)c(=O)c4n3)CCO2)n1 (stereo not drawn) [Example 45] , thanks.
Reply: < 75%

Ask: Note Emax for the compound shown: COC1CN(C2CCCN(c3nc(-c4ccc(Cl)cc4F)c4nc(C)n(C)c(=O)c4n3)C2)C1 (stereo not drawn) [Example 79]
Reply: < 75%

Ask: Fill in reported Emax for this entry: Cc1nc2c(-c3ccc(F)cc3F)nc(N3C[C@H](c4cnn(C)c4)OC(C)(C)C3)nc2c(=O)n1C (single isomer, unassigned) [Example 121B]
Reply: < 75%

Ask: Consider the compound Cc1cc([C@@H]2CN(c3cc4c(=O)n(C)c(C)nc4c(-c4ccc(C(F)(F)F)nc4)n3)CC(C)(C)O2)ccn1 (single isomer, unassigned) [Example 161A] . State its measured Emax.
Reply: < 75%

Ask: Give the reported value of Emax for this record: Cc1nc2c(-c3ccc(C(F)(F)F)nc3)nc(N3CCOC(c4cnn(C)c4)C3)nc2c(=O)n1C (stereo not drawn) [Example 4]
Reply: 75 to 110%

Ask: Give the measured Emax for Cc1nc2c(-c3cc(F)c(F)cc3F)nc(N3CCO[C@H](c4cnn(C)c4)C3)nc2c(=O)n1C (single isomer, unassigned) [Example 27A]
Reply: < 75%

Ask: Supply measured Emax of Cc1cc([C@H]2CN(c3nc(-c4ccc(Cl)cc4F)c4nc(C)n(C)c(=O)c4n3)C[C@@H](C)O2)ccn1 (single isomer, unassigned) [Example 176B] in your reply.
Reply: 75 to 110%

Ask: Tell me Emax reported for Cc1nc2c(-c3ccc(Cl)cc3F)nc(N3CCO[C@H](c4cnn(C(F)(F)F)c4)C3)nc2c(=O)n1C (single isomer, unassigned) [Example 107A]
Reply: 75 to 110%

Ask: Please report Emax for the following compound: Cn1c(C(F)(F)F)nc2c(-c3ccc(F)cc3F)nc([C@@H]3CCO[C@H](c4cnn(C5CC5)c4)C3)nc2c1=O (single isomer, unassigned) [Example 196A]
Reply: 75 to 110%

Ask: Specify reported Emax for the compound shown: Cc1nc2c(-c3ccc(F)cc3Cl)nc(N3CCOC(c4cnn(C)c4)C3)nc2c(=O)n1C (stereo not drawn) [Example 70]
Reply: < 75%

Ask: Tell me its Emax given Cc1nc2c(-c3ccc(F)cc3F)nc(N3CCO[C@@H](c4cnn(C)c4)C3)cc2c(=O)n1C (single isomer, unassigned) [Example 129A] as the entry.
Reply: 75 to 110%

Ask: Consider the compound Cc1cc([C@@H]2CN(c3nc(-c4ccc(Cl)cc4F)c4nc(C)n(C)c(=O)c4n3)CCO2)ccn1 (single isomer, unassigned) [Example 23A] . State its measured Emax.
Reply: < 75%

Ask: Let me know recorded Emax for Cc1cc([C@H]2CN(c3nc(-c4ccc(F)cc4F)c4nc(C(F)(F)F)n(C)c(=O)c4c3F)CCO2)ccn1 (single isomer, unassigned) [Example 174B] , thanks.
Reply: < 75%

Ask: Consider the compound Cc1nc2c(-c3ccc(C(F)(F)F)nc3)nc([C@H]3CCO[C@@H](c4cnn(C5CC5)c4)C3)nc2c(=O)n1C (single isomer, unassigned) [Example 98B] . State its measured Emax.
Reply: < 75%

Ask: Report Emax for Cc1nc2c(-c3ccc(Cl)cc3F)nc(N3C[C@@H](c4cnn(C)c4)OC(F)(F)C3)nc2c(=O)n1C (single isomer, unassigned) [Example 149A]
Reply: 75 to 110%

Ask: // fetch Emax given entry Cc1nc2c(-c3ccc(F)c(F)c3)nc(N3CCOC(c4cnn(C)c4)C3)nc2c(=O)n1C (stereo not drawn) [Example 9]
Reply: < 75%

Ask: Please give measured Emax of the following entry: Cc1cc([C@@H]2C[C@H](c3cc4c(=O)n(C)c(C)nc4c(-c4ccc(C(F)(F)F)cc4F)n3)CCO2)ccn1 (single isomer, unassigned) [Example 168A]
Reply: < 75%

Ask: For the compound Cc1nc2c(-c3ccc(C(F)(F)F)cc3F)nc(N3C[C@@H](c4cnn(C)c4)OC(C)(C)C3)nc2c(=O)n1C (single isomer, unassigned) [Example 100A] , give its reported Emax.
Reply: 75 to 110%

Ask: Note Emax for the compound shown: Cc1nc2c(-c3ccc(C#N)cc3F)nc(N3C[C@@H](c4cnn(C5CC5)c4)O[C@@H](C)C3)cc2c(=O)n1C (single isomer, unassigned) [Example 200A]
Reply: 75 to 110%

Ask: Provide one value: measured Emax of Cc1nc2c(-c3ccc(C(F)(F)F)nc3)nc([C@@H]3CCO[C@H](c4cnn(C5CC5)c4)C3)nc2c(=O)n1C (single isomer, unassigned) [Example 98A]
Reply: < 75%

Ask: Recall and state the measured Emax for Cc1nc2c(-c3ccc(Cl)cc3F)nc(N3CCOC(c4ncc[nH]4)C3)nc2c(=O)n1C (stereo not drawn) [Example 81] .
Reply: < 75%

Ask: Please report the measured Emax for Cc1nc2c(-c3ccc(Cl)cc3F)nc([C@@H]3CCO[C@H](c4cnn(C)c4)C3)nc2c(=O)n1C (single isomer, unassigned) [Example 67]
Reply: > 110%

====

I'd appreciate it if you could supply Emax values for the items below.
# Measured on: Human TREM2 (Homo sapiens, UniProt Q9NZC2)
# Construct: expressed in transfected cells
# Sequence (Q9NZC2 19-230): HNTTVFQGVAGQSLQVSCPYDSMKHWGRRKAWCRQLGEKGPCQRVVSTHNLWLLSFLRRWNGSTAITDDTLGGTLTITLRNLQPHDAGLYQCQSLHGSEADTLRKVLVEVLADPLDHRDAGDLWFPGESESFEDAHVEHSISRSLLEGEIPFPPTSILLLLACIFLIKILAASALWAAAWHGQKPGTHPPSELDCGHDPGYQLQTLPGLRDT
# Sequence (O43914 22-113 partner): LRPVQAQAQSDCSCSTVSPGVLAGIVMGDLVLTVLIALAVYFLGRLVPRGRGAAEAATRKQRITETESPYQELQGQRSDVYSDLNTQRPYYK
# Test details: Human TREM2 activity: cellular phosphorylation of Syk (AlphaLISA SureFire Ultra p-SYK) in HEK293/DAP12+TREM2 stable cell line
# Format: cell-based
# Condition: HEK293; maximal response relative to reference agonist example 1B (remaining examples); read-out: Emax

Ask: Give the reported Emax for this compound. Cc1nc2c(-c3ccc(Cl)cc3F)nc([C@@H]3CCO[C@H](c4cnn(C5CC5)c4)C3)nc2c(=O)n1C (single isomer, unassigned) [Example 24A]
Reply: 75 to 110%

Ask: Note Emax for the compound shown: Cc1cc([C@@H]2CN(c3cc4c(=O)n(C)c(C)nc4c(-c4ccc(C(F)F)nc4)n3)CC(F)(F)O2)ccn1 (single isomer, unassigned) [Example 181A]
Reply: < 75%

Ask: Could you please provide reported Emax for Cc1nc2c(-c3ccc(C(F)(F)F)cc3C#N)nc(N3C[C@@H](c4cnn(C5CC5)c4)O[C@@H](C)C3)cc2c(=O)n1C (single isomer, unassigned) [Example 202A] ? Thanks!
Reply: < 75%

These entries and their values trace back to patent US20260200926A1.
